Origin of measurements: ChEMBL document CHEMBL1143019

// MIC lookup, one value per entry
Tested on: Pichia kudriavzevii
Experiment: Antifungal activity against Candida krusei E28 after 24 hrs
Assay type: functional
Your answer should be a plain number; it is taken to be in µM.

1. C[C@]12CC[C@@H]3c4ccc(OCCCCCCC[n+]5ccc(SCc6ccccc6)cc5)cc4CC[C@H]3[C@@H]1CCC2=O.[Br-]: 7.8

Query block: May I ask what MIC has been recorded for `C[C@@H]1[C@H](O)[C@@H](C)/C=C/C=C/C=C/C=C/C=C/C=C/C=C/[C@H](O[C@@H]2O[C@H](C)[C@@H](O)[C@H](N)[C@@H]2O)C[C@@H]2O[C@](O)(C[C@@H](O)C[C@@H](O)[C@H](O)CC[C@@H](O)C[C@@H](O)CC(=O)O[C@H]1C)C[C@H](O)[C@H]2C(=O)O` ?
Result block: 0.14
